- Test system: RS4-11
- test-name: Anti-proliferative activity against human RS4-11 cells assessed as cell viability measured after 5 days incubation by CCK-8 assay
- Type: functional, cell-based
- particulars: RS4-11, 120 h
pIC50: −log10 of the molar value.
recorded-metric: pIC50

compound="CCN(c1cc(-c2ccc(CN3CCN(CCCCCCCOc4cccc5c4C(=O)N(C4CCC(=O)NC4=O)C5=O)CC3)cc2)cc(C(=O)NCc2c(C)cc(C)[nH]c2=O)c1C)C1CCOCC1 (stereo not given)" target_desc=RS4-11 recorded_metric=pIC50 numeric_readout=5.30
compound=CCN(c1cc(-c2ccc(OCCCOCC(=O)N[C@H](C(=O)N3C[C@H](O)C[C@H]3C(=O)NCc3ccc(-c4scnc4C)cc3)C(C)(C)C)cc2)cc(C(=O)NCc2c(C)cc(C)[nH]c2=O)c1C)C1CCOCC1 target_desc=RS4-11 recorded_metric=pIC50 numeric_readout=5.39
compound=CCN(c1cc(-c2ccc(CN3CCN(C(=O)CCCCCCCC(=O)N[C@H](C(=O)N4C[C@H](O)C[C@H]4C(=O)NCc4ccc(-c5scnc5C)cc4)C(C)(C)C)CC3)cc2)cc(C(=O)NCc2c(C)cc(C)[nH]c2=O)c1C)C1CCOCC1 target_desc=RS4-11 recorded_metric=pIC50 numeric_readout=5.85
compound=CCN(c1cc(-c2ccc(CN3CCN(CCC(=O)NCCCCCCCCCCC(=O)N[C@H](C(=O)N4C[C@H](O)C[C@H]4C(=O)NCc4ccc(-c5scnc5C)cc4)C(C)(C)C)CC3)cc2)cc(C(=O)NCc2c(C)cc(C)[nH]c2=O)c1C)C1CCOCC1 target_desc=RS4-11 recorded_metric=pIC50 numeric_readout=6.39
compound="Cc1cc(C)c(CNC(=O)c2cc(-c3ccc(N4CCN(CCCCCCCCCc5cn(CCOCCOCCOCCOCCOCCOCCNc6cccc7c6C(=O)N(C6CCC(=O)NC6=O)C7=O)nn5)CC4)nc3)cc3c2cnn3C(C)C)c(=O)[nH]1 (stereo not given)" target_desc=RS4-11 recorded_metric=pIC50 numeric_readout=6.19

====

- target-desc: von Hippel-Lindau disease tumor suppressor/Histone-lysine N-methyltransferase EZH2 (Homo sapiens, UniProt Q15910+P40337)
- Sequence (P40337 whole entry, looked up): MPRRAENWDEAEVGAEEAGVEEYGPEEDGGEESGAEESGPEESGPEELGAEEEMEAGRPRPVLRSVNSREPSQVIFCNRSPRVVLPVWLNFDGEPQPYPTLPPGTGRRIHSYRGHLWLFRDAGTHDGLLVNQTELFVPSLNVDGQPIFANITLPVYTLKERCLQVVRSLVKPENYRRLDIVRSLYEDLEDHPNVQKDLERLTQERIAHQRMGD
- Sequence (Q15910 whole entry, looked up): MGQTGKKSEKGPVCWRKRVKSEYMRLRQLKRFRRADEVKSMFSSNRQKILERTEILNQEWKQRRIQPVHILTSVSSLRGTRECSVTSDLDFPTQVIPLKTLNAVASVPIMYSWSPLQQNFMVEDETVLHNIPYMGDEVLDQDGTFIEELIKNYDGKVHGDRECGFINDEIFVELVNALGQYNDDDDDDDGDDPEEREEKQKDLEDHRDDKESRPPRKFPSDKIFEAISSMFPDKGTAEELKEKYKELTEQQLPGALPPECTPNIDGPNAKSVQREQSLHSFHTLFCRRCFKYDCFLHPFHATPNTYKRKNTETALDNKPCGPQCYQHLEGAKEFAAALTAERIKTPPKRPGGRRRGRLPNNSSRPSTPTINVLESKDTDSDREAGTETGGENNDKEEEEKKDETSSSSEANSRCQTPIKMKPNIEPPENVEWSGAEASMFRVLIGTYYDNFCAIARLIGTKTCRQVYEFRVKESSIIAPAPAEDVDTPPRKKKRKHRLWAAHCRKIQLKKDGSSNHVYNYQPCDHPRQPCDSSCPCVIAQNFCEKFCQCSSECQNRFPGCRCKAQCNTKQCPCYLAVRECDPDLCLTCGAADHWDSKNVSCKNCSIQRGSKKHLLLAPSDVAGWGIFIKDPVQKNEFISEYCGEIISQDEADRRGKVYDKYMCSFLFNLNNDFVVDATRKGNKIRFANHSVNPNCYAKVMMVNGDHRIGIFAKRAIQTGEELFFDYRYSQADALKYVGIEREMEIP
- test-name: PROTAC activity at VHL/EZH2 degradation in hMLLr AML cell line EOL1 cells assessed as protein degradation at 0.1 to 1 uM measured after 24 hrs by Western blot analysis
- Format: cell-based
- particulars: dose 0.1-1 µM
Active and inactive are the calls of the source. No cut-off for these calls is given here.
Outcome codes: active, inactive

test_smiles=CCN(c1cc(-c2ccc(CN3CCN(CCC(=O)NCCCCC(=O)N[C@H](C(=O)N4C[C@H](O)C[C@H]4C(=O)NCc4ccc(-c5scnc5C)cc4)C(C)(C)C)CC3)cc2)cc(C(=O)NCc2c(C)cc(C)[nH]c2=O)c1C)C1CCOCC1 class=inactive
test_smiles=CCN(c1cc(-c2ccc(CN3CCN(CCC(=O)NCCCCCCC(=O)N[C@H](C(=O)N4C[C@H](O)C[C@H]4C(=O)NCc4ccc(-c5scnc5C)cc4)C(C)(C)C)CC3)cc2)cc(C(=O)NCc2c(C)cc(C)[nH]c2=O)c1C)C1CCOCC1 class=inactive
test_smiles=CCN(c1cc(-c2ccc(CN3CCN(CCC(=O)NCCCCCCCCC(=O)N[C@H](C(=O)N4C[C@H](O)C[C@H]4C(=O)NCc4ccc(-c5scnc5C)cc4)C(C)(C)C)CC3)cc2)cc(C(=O)NCc2c(C)cc(C)[nH]c2=O)c1C)C1CCOCC1 class=active
test_smiles=CCN(c1cc(-c2ccc(CN3CCN(CCC(=O)NCCCCCC(=O)N[C@H](C(=O)N4C[C@H](O)C[C@H]4C(=O)NCc4ccc(-c5scnc5C)cc4)C(C)(C)C)CC3)cc2)cc(C(=O)NCc2c(C)cc(C)[nH]c2=O)c1C)C1CCOCC1 class=inactive
test_smiles=CCN(c1cc(-c2ccc(CN3CCN(CCC(=O)NCCCCCCCC(=O)N[C@H](C(=O)N4C[C@H](O)C[C@H]4C(=O)NCc4ccc(-c5scnc5C)cc4)C(C)(C)C)CC3)cc2)cc(C(=O)NCc2c(C)cc(C)[nH]c2=O)c1C)C1CCOCC1 class=active
